- Test system: human promyelocytic leukemia HL-60 cells
- assayExplanation: Cytotoxicity, MTT method, HL-60 cells
- Format: cell-based
- particulars: average CC50 non-malignant cells / CC50 HL-60
quantityMeasured: SI (selectivity index) HL-60

Q: Given O=C1/C(=C/c2ccccc2)CN(CCCN2C/C(=C\c3ccccc3)C(=O)/C(=C/c3ccccc3)C2)C/C1=C\c1ccccc1 [Compound 4] , respond with its SI (selectivity index) HL-60.
Ans: 22.2

Q: Given O=C1/C(=C/c2ccccc2)CN(C(=O)C(=O)N2C/C(=C\c3ccccc3)C(=O)/C(=C/c3ccccc3)C2)C/C1=C\c1ccccc1 [Compound 2a] , respond with its SI (selectivity index) HL-60.
Ans: 29.6

Q: Given O=C1/C(=C/c2ccc(Cl)cc2)CN(C(=O)CC(=O)N2C/C(=C\c3ccc(Cl)cc3)C(=O)/C(=C/c3ccc(Cl)cc3)C2)C/C1=C\c1ccc(Cl)cc1 [Compound 3c] , respond with its SI (selectivity index) HL-60.
Ans: 8.26

Data provenance is paper PMC10821124.
